Origin of measurements: PubChem BioAssay (NCI)

# Tested on: SNB-75 CNS
# METHOD: NCI-60 one-dose screen, 48 h
# CONDITION LABEL: 10 µM unless noted
About 83,000 compounds went through this panel and 20% of them were active in at least one assay; those are over-represented in the sample as a whole. Activity calls are given as the source filed them. Rule for the calls: active = growth percent below 10; inactive = the rest.
Result category, one only: Y = active, N = inactive

I would be grateful if you could indicate the recorded call for CCCCC(O)(c1ccc(Cl)cc1)C(CN1CCOCC1)c1ccc(Cl)cc1 (stereo not given) .
N

I would be grateful if you could indicate the recorded call for "COc1ccc(-c2nc(-c3ccccc3)c(-c3ccccc3)[nH]2)cc1OC1CCCCC1" .
N

I would be grateful if you could indicate the recorded call for "Cc1ccc(CN2CCC(C(=O)Nc3ccc(-c4cc5ccccc5[nH]4)cc3)CC2)o1" .
N

I would be grateful if you could indicate the recorded call for CCOc1cc(Cl)c(C(C)NC(=O)c2cccc(OC)c2)cc1OCC (stereo not given) .
Y

I would be grateful if you could indicate the recorded call for CSc1nc2c(c(=O)[nH]1)N=C1c3ccccc3C(=O)C1C(c1ccccc1)N2 (stereo not given) .
N
